Assay: chemical genetic growth profiling, strain panel (AID 1159580);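 note: tested at 20 µM; growth read once vehicle control cultures reached saturation at 30 °C; 1 = growth at the plate median or of vehicle wells; lower values mean less growth of the strain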
Details: S. cerevisiae deletion strains, growth OD, locus YOR265W, strain rbl2
Hit rate of the full screen: of about 5,500 compounds, about 2,000 (36%) were called active. Roughly 18% stayed inconclusive and do not appear here. Cut-off read from the data, not from the text of the source: active = normalized growth mostly below about 0.91 (no sharp cut-off); inconclusive = no clear call, values can overlap the other calls; inactive = mostly above about 0.92. The list shows a part of the results.
Outcomes: class 1 (active), class 0 (inactive)

[[record]]
compound = "C[C@H](N)[C@H](O)c1ccc(O)c(O)c1"
category = "class 0"

[[record]]
compound = "Nc1ccc(C(=O)NCC(=O)O)cc1"
category = "class 0"

[[record]]
compound = "COc1cc2c(c(OC)c1OC)-c1ccc(OC)c(=O)cc1[C@@H](NC(C)=O)CC2"
category = "class 0"

[[record]]
compound = "Cc1ccsc1/C=C/C1=NCCCN1C"
category = "class 0"

[[record]]
compound = "Nc1ncn([C@@H]2O[C@H](CO)[C@@H](O)[C@H]2O)c(=O)n1"
category = "class 0"

[[record]]
compound = "Cc1ccc(/C(=C\\CN2CCCC2)c2ccccn2)cc1"
category = "class 0"

[[record]]
compound = "C[n+]1cccc(C(=O)[O-])c1"
category = "class 0"

[[record]]
compound = "O=C(O[C@@H]1Cc2c(O)cc(O)cc2O[C@@H]1c1cc(O)c(O)c(O)c1-c1c([C@H]2Oc3cc(O)cc(O)c3C[C@H]2O)cc(O)c(O)c1O)c1cc(O)c(O)c(O)c1"
category = "class 0"

[[record]]
compound = "Oc1c(Br)cc(Br)c2cccnc12"
category = "class 1"

[[record]]
compound = "CC(=O)Oc1ccc(Cl)c2cccnc12"
category = "class 1"

[[record]]
compound = "O=C1C=CC2=C3c4cc(O)c(O)cc4CC3(O)COC2=C1O (configuration not stated)"
category = "class 0"

[[record]]
compound = "CCC(Cc1c(I)cc(I)c(N)c1I)C(=O)O (configuration not stated)"
category = "class 0"

[[record]]
compound = "Nc1ccc(S(=O)(=O)Nc2ccccn2)cc1"
category = "class 0"

[[record]]
compound = "CN/C(=C\\[N+](=O)[O-])NCCSCc1ccc(CN(C)C)o1"
category = "class 0"

[[record]]
compound = "O=C(O)CF"
category = "class 0"

[[record]]
compound = "O=C(NC(=O)c1c(F)cccc1F)Nc1ccc(Cl)cc1"
category = "class 0"

[[record]]
compound = "N[C@@H](Cc1ccc(O)c(O)c1)C(=O)O"
category = "class 0"


---

Assay: chemical genetic growth profiling, strain panel (AID 1159580);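 note: tested at 20 µM; growth read once vehicle control cultures reached saturation at 30 °C; 1 = growth at the plate median or of vehicle wells; lower values mean less growth of the strain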
Conditions: S. cerevisiae deletion strains, growth OD, locus YDR162C, strain NBP2, active compounds read low
The whole screen tested about 5,500 compounds, of which about 2,000 (36%) were called active. Another 18% or so got no clear call; they are omitted. Some of the results follow.
// reported normalized growth for each item listed
valueType: normalized growth

[[record]]
molecule = "NCCCC[C@H](N[C@@H](CCc1ccccc1)C(=O)O)C(=O)N1CCC[C@H]1C(=O)O"
valuetype = "normalized growth"
measurement = 0.994

[[record]]
molecule = "C1CNCCN1"
valuetype = "normalized growth"
measurement = 1.02

[[record]]
molecule = "CCCCC(CC)CN1CN(CC(CC)CCCC)CC(C)(N)C1 (stereo not given)"
valuetype = "normalized growth"
measurement = 0.233

[[record]]
molecule = "CCCC1O[C@@H]2CC3C4CCC5=CC(=O)C=CC5(C)C4[C@@H](O)CC3(C)[C@]2(C(=O)CO)O1 (stereo not given in full)"
valuetype = "normalized growth"
measurement = 1

[[record]]
molecule = "Cc1c(O)c(O)cc2c1CC=C1[C@@]2(C)CC[C@@]2(C)C3C[C@](C)(C(=O)O)CC[C@]3(C)CC[C@]12C (stereo not given in full)"
valuetype = "normalized growth"
measurement = 0.803

[[record]]
molecule = "COC(=O)Oc1ccccc1C(=O)O"
valuetype = "normalized growth"
measurement = 0.99

[[record]]
molecule = "CC1(C)C(O)CC(O)C2(C)C1CC(=O)C1(C)C2CCC2(C)C(C(=O)O)OC(=O)C3OC321 (stereo not given)"
valuetype = "normalized growth"
measurement = 1.03

[[record]]
molecule = "OC[C@@H](O)[C@@H](O[C@@H]1O[C@H](CO)[C@@H](O)[C@H](O)[C@H]1O)[C@H](O)[C@@H](O)CO"
valuetype = "normalized growth"
measurement = 0.979

[[record]]
molecule = "O=C1CCCC2C3CC(CN12)[C@@H]1CCCCN1C3 (stereo not given in full)"
valuetype = "normalized growth"
measurement = 1.01

[[record]]
molecule = "CNC[C@@H](O)c1ccc(O)c(O)c1"
valuetype = "normalized growth"
measurement = 0.977

[[record]]
molecule = "O=[N+]([O-])c1cc([As](=O)(O)O)ccc1O"
valuetype = "normalized growth"
measurement = 0.962

[[record]]
molecule = "O=C(O[C@@H]1Cc2c(O)cc(O)cc2O[C@@H]1c1cc(O)c(O)c(O)c1-c1c([C@H]2Oc3cc(O)cc(O)c3C[C@H]2O)cc(O)c(O)c1O)c1cc(O)c(O)c(O)c1"
valuetype = "normalized growth"
measurement = 0.0726

[[record]]
molecule = "O=C(OC1Cc2c(O)cc(O)cc2OC1c1cc(O)c(O)c(O)c1-c1c(C2Oc3cc(O)cc(O)c3CC2OC(=O)c2cc(O)c(O)c(O)c2)cc(O)c(O)c1O)c1cc(O)c(O)c(O)c1 (stereo not given)"
valuetype = "normalized growth"
measurement = 1.02

[[record]]
molecule = "C[C@H](N)[C@H](O)c1ccc(O)c(O)c1"
valuetype = "normalized growth"
measurement = 0.999

[[record]]
molecule = "Oc1ccc(Cl)c2cccnc12"
valuetype = "normalized growth"
measurement = 0.0481

[[record]]
molecule = "C[n+]1cccc(C(=O)[O-])c1"
valuetype = "normalized growth"
measurement = 1.07

[[record]]
molecule = "CCCC(C)C1(CC)C(=O)NC(=O)NC1=O (stereo not given)"
valuetype = "normalized growth"
measurement = 1.03

[[record]]
molecule = "CC(C)NCC(O)c1ccc2ccccc2c1 (stereo not given)"
valuetype = "normalized growth"
measurement = 1.03

[[record]]
molecule = "COc1ccccc1OCCNCC(O)COc1cccc2[nH]c3ccccc3c12 (stereo not given)"
valuetype = "normalized growth"
measurement = 0.974

[[record]]
molecule = "CC(=O)O[C@@H]1CC2C(C)(C)C(=O)CC[C@]2(C)C2CC[C@]3(C)C(=CC(=O)O[C@H]3c3ccoc3)[C@@]21C (stereo not given in full)"
valuetype = "normalized growth"
measurement = 0.98


---

Experiment: chemical genetic growth profiling, strain panel (AID 1159580);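 note: tested at 20 µM; growth read once vehicle control cultures reached saturation at 30 °C; 1 = growth at the plate median or of vehicle wells; lower values mean less growth of the strain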
Conditions: S. cerevisiae deletion strains, growth OD, locus YBR009C, strain hhf1
In all, about 5,500 compounds went through this assay and about 2,000 (36%) were called active. Not shown: some 18% with an inconclusive outcome. No stated cut-off is given here; in the data, active means normalized growth mostly below about 0.91 (no sharp cut-off); inconclusive means no clear call, values can overlap the other calls; inactive means mostly above about 0.92. This is one part of the list.
Outcomes: active, inactive

[[record]]
compound = "Nc1ccc([As](=O)(O)O)cc1"
category = "inactive"

[[record]]
compound = "O=C(OC1Cc2c(O)cc(O)cc2OC1c1cc(O)c(O)c(O)c1-c1c(C2Oc3cc(O)cc(O)c3CC2OC(=O)c2cc(O)c(O)c(O)c2)cc(O)c(O)c1O)c1cc(O)c(O)c(O)c1 (stereo not given)"
category = "inactive"

[[record]]
compound = "CC(C)NCC(O)c1ccc(O)c(O)c1 (stereo not given)"
category = "inactive"

[[record]]
compound = "Nc1ccc(S(=O)(=O)Nc2ccc(Cl)nn2)cc1"
category = "inactive"

[[record]]
compound = "COc1cccc(/C=C/C(=O)O)c1C(C)C"
category = "inactive"

[[record]]
compound = "CC(C)=CCC[C@](C)(O)C1CC=C(C)CC1 (stereo not given in full)"
category = "inactive"

[[record]]
compound = "Oc1c(I)cc(Cl)c2cccnc12"
category = "active"

[[record]]
compound = "OC[C@@H]1CCCN2CCCC[C@H]12"
category = "inactive"

[[record]]
compound = "O=[N+]([O-])c1cc([As](=O)(O)O)ccc1O"
category = "inactive"

[[record]]
compound = "CC(C)=CCC/C(C)=C/CC/C(C)=C/CC/C(C)=C/CC/C(C)=C/CC/C(C)=C/CC/C(C)=C/CC/C(C)=C/CC/C(C)=C/CO"
category = "inactive"

[[record]]
compound = "CCOP(=S)(OCC)SCn1c(=O)oc2cc(Cl)ccc21"
category = "active"

[[record]]
compound = "Oc1c(I)cc(I)c2cccnc12"
category = "active"

[[record]]
compound = "CCCCC1=NC2(CCCC2)C(=O)N1Cc1ccc(-c2ccccc2-c2nn[nH]n2)cc1"
category = "inactive"

[[record]]
compound = "C/C=C/c1ccc2c(c1)OCO2"
category = "inactive"

[[record]]
compound = "C1CCN2C[C@@H]3C[C@H](CN4CCCC[C@@H]34)[C@H]2C1"
category = "inactive"

[[record]]
compound = "CC1(C)CCCC2(C)C3C1[C@@H](O)C2(C)C[C@H]3O (stereo not given in full)"
category = "inactive"

[[record]]
compound = "CC(=O)c1c(O)c(C)c(O)c2c1OC1=CC(=O)C(C(C)=O)C(=O)C12C (stereo not given)"
category = "active"

[[record]]
compound = "O=C1CCCC2C3CC(CN12)[C@@H]1CCCCN1C3 (stereo not given in full)"
category = "inactive"

[[record]]
compound = "C=CC(C)(O)CC/C=C(\\C)CCC=C(C)C (stereo not given)"
category = "inactive"

[[record]]
compound = "CC(=O)/C(=C\\c1ccccc1)CC(=O)O"
category = "inactive"

[[record]]
compound = "Oc1ccc(Cl)c2cccnc12"
category = "active"

[[record]]
compound = "Nc1ncnc2c1ncn2C1O[C@H](COP(=O)(O)O)[C@@H](O)[C@H]1O (stereo not given in full)"
category = "inactive"

[[record]]
compound = "COc1cc2c(c(OC)c1OC)-c1ccc(OC)c(=O)cc1[C@@H](NC(C)=O)CC2"
category = "inactive"

[[record]]
compound = "O=C1O[C@H](C(O)CO)C(O)=C1O (stereo not given in full)"
category = "inactive"

[[record]]
compound = "CCCC1O[C@@H]2CC3C4CCC5=CC(=O)C=CC5(C)C4[C@@H](O)CC3(C)[C@]2(C(=O)CO)O1 (stereo not given in full)"
category = "inactive"

[[record]]
compound = "O=C(O)/C=C/C=C/c1ccccc1"
category = "active"

[[record]]
compound = "O=C(O[C@@H]1Cc2c(O)cc(O)cc2O[C@@H]1c1cc(O)c(O)c(O)c1-c1c([C@H]2Oc3cc(O)cc(O)c3C[C@H]2O)cc(O)c(O)c1O)c1cc(O)c(O)c(O)c1"
category = "inactive"

[[record]]
compound = "CCCCC(CC)CN1CN(CC(CC)CCCC)CC(C)(N)C1 (stereo not given)"
category = "active"

[[record]]
compound = "CC(=O)O[C@@H]1CC2C(C)(C)C=CC(=O)[C@]2(C)C2CC[C@@]3(C)[C@H](c4ccoc4)OC(=O)C4OC43[C@@]21C (stereo not given in full)"
category = "inactive"

[[record]]
compound = "CN[C@H](CC(=O)O)C(=O)O"
category = "inactive"

